MEASUREMENT_TARGET: RAC-alpha serine/threonine-protein kinase (Homo sapiens, UniProt P31749)
Sequence (P31749 whole entry): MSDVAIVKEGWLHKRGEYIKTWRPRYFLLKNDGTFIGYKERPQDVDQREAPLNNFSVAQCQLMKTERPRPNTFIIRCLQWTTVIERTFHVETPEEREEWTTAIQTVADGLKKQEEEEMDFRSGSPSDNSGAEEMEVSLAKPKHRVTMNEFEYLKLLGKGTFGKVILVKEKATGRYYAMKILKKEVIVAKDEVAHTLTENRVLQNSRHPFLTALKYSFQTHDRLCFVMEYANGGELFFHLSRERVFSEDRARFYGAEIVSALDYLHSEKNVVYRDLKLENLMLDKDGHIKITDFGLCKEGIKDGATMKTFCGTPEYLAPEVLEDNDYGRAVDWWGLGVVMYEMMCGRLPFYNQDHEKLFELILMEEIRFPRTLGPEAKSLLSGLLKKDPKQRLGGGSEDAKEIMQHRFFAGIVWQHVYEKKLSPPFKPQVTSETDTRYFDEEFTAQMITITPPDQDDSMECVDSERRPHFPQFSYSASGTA
PROTOCOL_SUMMARY: Inhibition of Akt using RPRTSSF peptide and [gamma32]ATP at 0.625 uM by cell-free radioactive assay relative to control
Where a SMILES comes first, the peptide text is derived from it. [ ]: non-standard residue; d: D form. Gly(N-(CH2)6NH2) = NCCCCCCNCC(=O)O; Gly(N-2-aminoethyl) = NCCNCC(=O)O; hLeu = CC(C)CC[C@H](N)C(=O)O; Nva = CCC[C@H](N)C(=O)O; Dap = NC[C@H](N)C(=O)O; Nlys = NCCCCNCC(=O)O
Entries annotated with measured inhibition
State the answer as a number, implicitly in %.

Reference set, count: 2
CCC[C@H](NC(=O)[C@H](CCCNC(=N)N)NC(=O)CN(CCCCCCN)C(=O)[C@@H](N)CCCNC(=N)N)C(=O)N[C@@H](Cc1ccc(O)cc1)C(=O)N[C@@H](CN)C(=O)N[C@@H](CCC(C)C)C(=O)N(CCCCCCN)CC(N)=O (H-R[Gly(N-(CH2)6NH2)]R[Nva]Y[Dap][hLeu][Gly(N-(CH2)6NH2)]-NH2)    57
CCC[C@H](NC(=O)[C@H](CCCNC(=N)N)NC(=O)CN(CCCCCCN)C(=O)[C@@H](N)CCCNC(=N)N)C(=O)N[C@@H](Cc1ccc(O)cc1)C(=O)N[C@@H](CN)C(=O)N[C@@H](CCC(C)C)C(=O)N(CCN)CC(N)=O (H-R[Gly(N-(CH2)6NH2)]R[Nva]Y[Dap][hLeu][Gly(N-2-aminoethyl)]-NH2)    83

Q: Data request, read-out inhibition, for CCC[C@H](NC(=O)[C@H](CCCNC(=N)N)NC(=O)CN(CCCCN)C(=O)[C@@H](N)CCCNC(=N)N)C(=O)N[C@@H](Cc1ccc(O)cc1)C(=O)N[C@@H](CN)C(=O)N[C@@H](CCC(C)C)C(=O)N(CCN)CC(N)=O (H-R[Nlys]R[Nva]Y[Dap][hLeu][Gly(N-2-aminoethyl)]-NH2)
Ans: 84

----------
Each entry below carries its recorded inhibition.
MEASUREMENT_TARGET: RAC-alpha serine/threonine-protein kinase (Homo sapiens)
PROTOCOL_SUMMARY: Inhibition of Akt using RPRTSSF peptide and [gamma32]ATP at 5 uM by cell-free radioactive assay relative to control
*1 amine or outer side, *2 acyl side, *3 side chain or, on linkers, in order; H or OH if unused. Where a SMILES comes first, the peptide text is derived from it. Bridges are numbered along the chain shown (N, C = ends). [ ]: non-standard residue; d: D form. N(6-aminohexyl)Gly = O=C(CN(CCCCCCN[*:3])[*:1])[*:2]; NGly(3-aminopropyl) = O=C(CN(CCCN[*:3])[*:1])[*:2]; Suc = O=C(CCC(=O)[*:2])[*:1]; hLeu = CC(C)CC[C@H](N)C(=O)O; Nva = CCC[C@H](N)C(=O)O; Dap = NC[C@H](N)C(=O)O; CO = O=C([*:1])[*:2]

Q: I'd like to know its inhibition. The compound in question is CCC[C@@H]1NC(=O)[C@H](CCCNC(=N)N)NC(=O)[C@@H]2CCCN2C(=O)[C@H](CCCNC(=N)N)NC(=O)CCC(=O)NCCCCCCN(CC(N)=O)C(=O)[C@H](CCC(C)C)NC(=O)[C@H](CN)NC(=O)[C@H](Cc2ccc(O)cc2)NC1=O (RPR[Nva]Y[Dap][hLeu][N(6-aminohexyl)Gly]-NH2; linker N-8 via Suc)
Ans: 25%

Q: // next record CCC[C@@H]1NC(=O)[C@H](CCCNC(=N)N)NC(=O)CN(C(=O)[C@@H](N)CCCNC(=N)N)CCCNC(=O)NCCCN(CC(N)=O)C(=O)[C@H](CCC(C)C)NC(=O)[C@H](CN)NC(=O)[C@H](Cc2ccc(O)cc2)NC1=O (H-R[NGly(3-aminopropyl)]R[Nva]Y[Dap][hLeu][NGly(3-aminopropyl)]-NH2; linker 2-8 via CO)
Ans: 98%

----------
As shown below, each of these compounds has a reported inhibition value.
MEASUREMENT_TARGET: RAC-alpha serine/threonine-protein kinase (Homo sapiens)
PROTOCOL_SUMMARY: Inhibition of Akt using RPRTSSF peptide and [gamma32]ATP at 5 uM by cell-free radioactive assay relative to control
*1 amine or outer side, *2 acyl side, *3 side chain or, on linkers, in order; H or OH if unused. Where a SMILES comes first, the peptide text is derived from it. Bridges are numbered along the chain shown (N, C = ends). [ ]: non-standard residue; d: D form. N(6-aminohexyl)Gly = O=C(CN(CCCCCCN[*:3])[*:1])[*:2]; Heptanedioyl = O=C(CCCCCC(=O)[*:2])[*:1]; Gly(N-2-aminoethyl) = NCCNCC(=O)O; Gly(N(CH2)3NH2) = NCCCNCC(=O)O; hLeu = CC(C)CC[C@H](N)C(=O)O; Nva = CCC[C@H](N)C(=O)O; Dap = NC[C@H](N)C(=O)O

Example compounds with recorded inhibition:
CCC[C@@H]1NC(=O)[C@H](CCCNC(=N)N)NC(=O)[C@@H]2CCCN2C(=O)[C@H](CCCNC(=N)N)NC(=O)CCCCCC(=O)NCCCCCCN(CC(N)=O)C(=O)[C@H](CCC(C)C)NC(=O)[C@H](CN)NC(=O)[C@H](Cc2ccc(O)cc2)NC1=O (RPR[Nva]Y[Dap][hLeu][N(6-aminohexyl)Gly]-NH2; linker N-8 via Heptanedioyl)    30%
CCC[C@H](NC(=O)[C@H](CCCNC(=N)N)NC(=O)[C@H](CN)NC(=O)[C@@H](N)CCCNC(=N)N)C(=O)N[C@@H](Cc1ccc(O)cc1)C(=O)N[C@@H](CN)C(=O)N[C@@H](CCC(C)C)C(N)=O    94%

Q: Please look up its inhibition: CCC[C@H](NC(=O)[C@H](CCCNC(=N)N)NC(=O)CNCCCN)C(=O)N[C@@H](Cc1ccc(O)cc1)C(=O)N[C@@H](CN)C(=O)N[C@@H](CCC(C)C)C(=O)N(CCN)CC(N)=O (H-[Gly(N(CH2)3NH2)]R[Nva]Y[Dap][hLeu][Gly(N-2-aminoethyl)]-NH2)
Ans: 63%

----------
MEASUREMENT_TARGET: RAC-alpha serine/threonine-protein kinase (Homo sapiens)
PROTOCOL_SUMMARY: Inhibition of Akt using RPRTSSF peptide and [gamma32]ATP at 0.625 uM by cell-free radioactive assay relative to control
*1 amine or outer side, *2 acyl side, *3 side chain or, on linkers, in order; H or OH if unused. Where a SMILES comes first, the peptide text is derived from it. Bridges are numbered along the chain shown (N, C = ends). [ ]: non-standard residue; d: D form. N(6-aminohexyl)Gly = O=C(CN(CCCCCCN[*:3])[*:1])[*:2]; N(2-Aminoethyl)Gly = O=C(CN(CCN[*:3])[*:1])[*:2]; Gly(N-(CH2)6NH2) = NCCCCCCNCC(=O)O; Gly(N-2-aminoethyl) = NCCNCC(=O)O; Gly(N(CH2)3NH2) = NCCCNCC(=O)O; hLeu = CC(C)CC[C@H](N)C(=O)O; Nva = CCC[C@H](N)C(=O)O; Dap = NC[C@H](N)C(=O)O; CO = O=C([*:1])[*:2]; Nlys = NCCCCNCC(=O)O
The following molecules are listed with their measured inhibition values.
Give just the numeric value; % need not be written.

CCC[C@H](NC(=O)[C@H](CCCNC(=N)N)NC(=O)CN(CCCN)C(=O)[C@@H](N)CCCNC(=N)N)C(=O)N[C@@H](Cc1ccc(O)cc1)C(=O)N[C@@H](CN)C(=O)N[C@@H](CCC(C)C)C(=O)N(CCCCCCN)CC(N)=O (H-R[Gly(N(CH2)3NH2)]R[Nva]Y[Dap][hLeu][Gly(N-(CH2)6NH2)]-NH2)    51
CCC[C@H](NC(=O)[C@H](CCCNC(=N)N)NC(=O)CN(CCCCN)C(=O)[C@@H](N)CCCNC(=N)N)C(=O)N[C@@H](Cc1ccc(O)cc1)C(=O)N[C@@H](CN)C(=O)N[C@@H](CCC(C)C)C(=O)N(CCCN)CC(N)=O (H-R[Nlys]R[Nva]Y[Dap][hLeu][Gly(N(CH2)3NH2)]-NH2)    91
CCC[C@@H]1NC(=O)[C@H](CCCNC(=N)N)NC(=O)CNCCCCCCNC(=O)NCCN(CC(N)=O)C(=O)[C@H](CCC(C)C)NC(=O)[C@H](CN)NC(=O)[C@H](Cc2ccc(O)cc2)NC1=O (H-[N(6-aminohexyl)Gly]R[Nva]Y[Dap][hLeu][N(2-Aminoethyl)Gly]-NH2; linker 1-7 via CO)    26
CCC[C@H](NC(=O)[C@H](CCCNC(=N)N)NC(=O)CN(CCCN)C(=O)[C@@H](N)CCCNC(=N)N)C(=O)N[C@@H](Cc1ccc(O)cc1)C(=O)N[C@@H](CN)C(=O)N[C@@H](CCC(C)C)C(=O)N(CCN)CC(N)=O (H-R[Gly(N(CH2)3NH2)]R[Nva]Y[Dap][hLeu][Gly(N-2-aminoethyl)]-NH2)    76
CCC[C@@H]1NC(=O)[C@H](CCCNC(=N)N)NC(=O)CNCCNC(=O)NCCN(CC(N)=O)C(=O)[C@H](CCC(C)C)NC(=O)[C@H](CN)NC(=O)[C@H](Cc2ccc(O)cc2)NC1=O (H-[N(2-Aminoethyl)Gly]R[Nva]Y[Dap][hLeu][N(2-Aminoethyl)Gly]-NH2; linker 1-7 via CO)    64

Kindly review the next molecule as well.
Q: Give its inhibition value. Item: CCC[C@H](NC(=O)[C@H](CCCNC(=N)N)NC(=O)CN(CCN)C(=O)[C@@H](N)CCCNC(=N)N)C(=O)N[C@@H](Cc1ccc(O)cc1)C(=O)N[C@@H](CN)C(=O)N[C@@H](CCC(C)C)C(=O)N(CCCCN)CC(N)=O (H-R[Gly(N-2-aminoethyl)]R[Nva]Y[Dap][hLeu][Nlys]-NH2)
Ans: 84

meta.source: ChEMBL document CHEMBL1799953
